ENDPOINT LABEL: melting point

Below are worked cases with known answers.
Could you tell me which melting point is on file for CNC(=O)NC(=O)[C@H](CC1CCCC1)c1ccc(Cl)c(Cl)c1 [Example 13] ?
124.8 to 127.5 °C

Could you tell me which melting point is on file for NC(=O)NC(=O)C(CC1CCCCC1)c1ccc(Cl)c(Cl)c1 (stereo not drawn) [Example 1] ?
76 to 79 °C

Could you tell me which melting point is on file for CNC(=O)NC(=O)C(CC1CCCC1)c1ccc(S(C)(=O)=O)cc1 (stereo not drawn) [Example 11] ?
205 to 206 °C

Could you tell me which melting point is on file for CNC(=O)NC(=O)C(CC1CCCC1)c1ccc(Cl)cc1 (stereo not drawn) [Example 4] ?
145 to 147 °C

Could you tell me which melting point is on file for COC(=O)CNC(=O)NC(=O)C(CC1CCCC1)c1ccc(Cl)c(Cl)c1 (stereo not drawn) [Example 21] ?
134.5 to 136.6 °C

New cases:
Could you tell me which melting point is on file for CNC(=O)NC(=O)C(CC1CCCC1)c1ccc(S(C)(=O)=O)c(Br)c1 (stereo not drawn) [Example 35] ?
259 to 260 °C

Could you tell me which melting point is on file for CC(C)C[C@@H](C(=O)NC(N)=O)c1ccc(Cl)c(Cl)c1 [Example 17] ?
138 to 140 °C

Could you tell me which melting point is on file for CCCCS(=O)(=O)c1ccc(C(CC2CCCC2)C(=O)NC(=O)NC)cc1 (stereo not drawn) [Example 39] ?
189 to 191 °C

Could you tell me which melting point is on file for CNC(=O)NC(=O)C(CC1CCCC1)c1ccc(S(C)(=O)=O)c(S(C)(=O)=O)c1 (stereo not drawn) [Example 37] ?
220 to 222 °C

###

Each entry below lists one item and its recorded melting point value.

Below are worked cases with known answers.
Could you tell me which melting point is on file for CNC(=O)NC(=O)C(CC1CCCC1)c1ccc(Br)cc1 (stereo not drawn) ?
184 to 186 °C

Could you tell me which melting point is on file for CNC(=O)NC(=O)C(CC1CCCC1)c1cccc(S(=O)(=O)C(F)(F)F)c1 (stereo not drawn) ?
59 to 62 °C

Could you tell me which melting point is on file for CNC(=O)NC(=O)C(CC1CCCC1)c1ccc(F)c(F)c1 (stereo not drawn) ?
111 to 113 °C

Could you tell me which melting point is on file for CNC(=O)NC(=O)C(CC1CCCC1)c1ccc(SC(F)(F)F)cc1 (stereo not drawn) ?
144 to 145 °C

Could you tell me which melting point is on file for CCS(=O)(=O)c1ccc(C(CC2CCCC2)C(=O)NC(=O)NC)cc1 (stereo not drawn) ?
200 to 201 °C

Could you tell me which melting point is on file for CNC(=O)NC(=O)C(CC1CCCC1)c1ccc(Cl)c([N+](=O)[O-])c1 (stereo not drawn) ?
61 to 64 °C

Could you tell me which melting point is on file for CNC(=O)NC(=O)C(CC1CCCC1)c1ccc(S(C)(=O)=O)c([N+](=O)[O-])c1 (stereo not drawn) ?
241 to 242 °C

Could you tell me which melting point is on file for CNC(=O)NC(=O)C(CC1CCCC1)c1ccc([N+](=O)[O-])cc1 (stereo not drawn) ?
179 to 183 °C

Now take the following compound into account.
Could you tell me which melting point is on file for CNC(=O)NC(=O)C(CC1CCCC1)c1ccccc1 (stereo not drawn) ?
145 to 147 °C

###

Each entry below lists one item and its recorded melting point value.

Could you tell me which melting point is on file for CNC(=O)NC(=O)C(CC1CCCC1)c1ccc(S(C)(=O)=O)c(C#N)c1 (stereo not drawn) ?
237 to 239 °C

Could you tell me which melting point is on file for CC(O)CNC(=O)NC(=O)C(CC1CCCC1)c1ccc(Cl)c(Cl)c1 (stereo not drawn) ?
116.7 to 119.9 °C

Now take the following compound into account.
Could you tell me which melting point is on file for CNC(=O)NC(=O)C(CC1CCCC1)c1ccc(C#N)cc1 (stereo not drawn) ?
61 to 65 °C
